biological target: human TLR7 (Homo sapiens, UniProt Q9NYK1); construct: host or cells: HEK-Blue cells; experiment: TLR7 inhibition reporter assay (HEK-Blue cells, SEAP reporter); type: cell-based; details: HEK-Blue cells overexpressing human TLR7, stimulated with gardiquimod 7.5 μM, 22 hour incubation
Sequence (Q9NYK1 27-1049): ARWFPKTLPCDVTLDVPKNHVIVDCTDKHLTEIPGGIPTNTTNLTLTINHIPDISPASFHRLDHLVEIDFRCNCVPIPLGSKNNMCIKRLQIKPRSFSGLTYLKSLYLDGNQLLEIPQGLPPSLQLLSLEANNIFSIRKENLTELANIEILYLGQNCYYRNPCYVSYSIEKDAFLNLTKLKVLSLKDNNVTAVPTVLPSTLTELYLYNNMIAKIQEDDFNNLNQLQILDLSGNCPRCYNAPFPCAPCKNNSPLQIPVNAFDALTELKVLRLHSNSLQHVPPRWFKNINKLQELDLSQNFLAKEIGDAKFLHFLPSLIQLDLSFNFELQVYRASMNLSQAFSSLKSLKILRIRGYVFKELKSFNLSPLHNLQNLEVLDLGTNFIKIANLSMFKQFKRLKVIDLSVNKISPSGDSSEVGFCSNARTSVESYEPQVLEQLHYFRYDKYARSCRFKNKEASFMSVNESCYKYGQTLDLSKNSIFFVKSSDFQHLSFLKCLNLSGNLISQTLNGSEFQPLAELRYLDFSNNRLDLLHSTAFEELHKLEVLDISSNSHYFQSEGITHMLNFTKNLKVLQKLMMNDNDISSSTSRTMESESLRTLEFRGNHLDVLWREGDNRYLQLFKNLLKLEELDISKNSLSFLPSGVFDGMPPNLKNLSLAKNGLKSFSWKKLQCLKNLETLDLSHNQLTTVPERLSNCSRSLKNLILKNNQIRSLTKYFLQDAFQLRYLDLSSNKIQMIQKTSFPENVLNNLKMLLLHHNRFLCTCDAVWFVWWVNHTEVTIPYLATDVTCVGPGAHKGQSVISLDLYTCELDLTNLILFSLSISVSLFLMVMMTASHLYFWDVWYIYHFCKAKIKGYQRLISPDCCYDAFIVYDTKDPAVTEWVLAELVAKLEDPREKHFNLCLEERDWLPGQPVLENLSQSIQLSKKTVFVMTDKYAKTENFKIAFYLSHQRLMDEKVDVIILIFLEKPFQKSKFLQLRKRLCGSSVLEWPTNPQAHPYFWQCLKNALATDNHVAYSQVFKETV
quantity_measured: pIC50
Reminder that pIC50 is minus the log10 of a molar concentration.

Worked set:
{"columns": ["structure", "quantity_measured", "quantitative_readout"],
 "data": [
  ["COc1ccc(-c2cc3cnc(-c4ccc(N5CCN(C6CCC6)CC5)cc4)cc3n2C)cc1OC", "pIC50", 4.86],
  ["COc1ccc(-c2c(C)[nH]c3cnc(C4CCN(C5CCN(C(=O)OCc6ccccc6)CC5)CC4)cc23)cc1OC", "pIC50", 5.02],
  ["CCOC(=O)N1CCC(N2CCC(c3cc4c(-c5ccc(OC)c(OC)c5)c(C)n(C)c4cn3)CC2)CC1", "pIC50", 5.04],
  ["COc1ccc(-c2c(C)[nH]c3cnc(C4CCN(C(=O)C5CCN(C6CC6)CC5)CC4)cc23)cc1OC", "pIC50", 5.09],
  ["Cc1nc(-c2ccc(CN3CCN(CC(C)(C)O)CC3)cc2)cc2c1cc(-c1ccc(S(C)(=O)=O)cc1)n2C", "pIC50", 6.19],
  ["COCCN1CCN(c2ccc(-c3cc4c(cc(-c5ccc(S(=O)(=O)C6CC6)cc5)n4C)c(C)n3)cc2)CC1", "pIC50", 5.68]
]}

INPUT: What pIC50 value was documented for this compound, `Cc1nc(-c2ccc(CN3CCN(CC(C)(C)O)CC3)cc2)cc2c1c(F)c(-c1ccc(S(C)(=O)=O)cc1)n2C` ?
OUTPUT: 4.77

INPUT: What measured pIC50 goes with `Cc1nc(-c2ccc(C3(O)CCN(C(C)C)CC3)c(F)c2)cc2c1cc(-c1ccc(S(C)(=O)=O)cc1)n2C` ?
OUTPUT: 5.68

INPUT: Request the reported pIC50 associated with `COc1ccc(-c2c(C)n(C)c3cnc(C4CCN(C5CCN(CC(C)C)CC5)CC4)cc23)cc1OC`
OUTPUT: 5.64

INPUT: # query: pIC50 of entry `Cc1nc(-c2cc(F)c(C3(O)CCN(CC(C)C)CC3)cc2F)cc2c1cc(-c1ccc(S(C)(=O)=O)cc1)n2C`
OUTPUT: 5.44

INPUT: // query pIC50 value for entry `CC(C)(O)CN1C2CCC1CN(Cc1ccc(-c3cc4c(cn3)cc(-c3ccc(S(C)(=O)=O)cc3)n4C3CC3)cc1)C2`
OUTPUT: 6.22

INPUT: # pIC50 lookup, item `CC(C)(O)CCN1CCN(Cc2ccc(-c3cc4c(cn3)cc(-c3ccc(S(C)(=O)=O)cc3)n4C3CC3)cc2)CC1`
OUTPUT: 5.44

INPUT: What value of pIC50 has been reported for the following compound? `Cc1nc(-c2ccc(CN3CCN(CCCO)CC3)cc2)cc2c1cc(-c1ccc(S(C)(=O)=O)cc1)n2C`
OUTPUT: 5.09

###

target: human TLR8 (Homo sapiens, UniProt Q9NR97); assay: TLR8 inhibition reporter assay (HEK-Blue cells, SEAP reporter); conditions: HEK-Blue cells overexpressing human TLR8, stimulated with R848 15.9 μM, 22 hour incubation
Sequence (Q9NR97 27-1041): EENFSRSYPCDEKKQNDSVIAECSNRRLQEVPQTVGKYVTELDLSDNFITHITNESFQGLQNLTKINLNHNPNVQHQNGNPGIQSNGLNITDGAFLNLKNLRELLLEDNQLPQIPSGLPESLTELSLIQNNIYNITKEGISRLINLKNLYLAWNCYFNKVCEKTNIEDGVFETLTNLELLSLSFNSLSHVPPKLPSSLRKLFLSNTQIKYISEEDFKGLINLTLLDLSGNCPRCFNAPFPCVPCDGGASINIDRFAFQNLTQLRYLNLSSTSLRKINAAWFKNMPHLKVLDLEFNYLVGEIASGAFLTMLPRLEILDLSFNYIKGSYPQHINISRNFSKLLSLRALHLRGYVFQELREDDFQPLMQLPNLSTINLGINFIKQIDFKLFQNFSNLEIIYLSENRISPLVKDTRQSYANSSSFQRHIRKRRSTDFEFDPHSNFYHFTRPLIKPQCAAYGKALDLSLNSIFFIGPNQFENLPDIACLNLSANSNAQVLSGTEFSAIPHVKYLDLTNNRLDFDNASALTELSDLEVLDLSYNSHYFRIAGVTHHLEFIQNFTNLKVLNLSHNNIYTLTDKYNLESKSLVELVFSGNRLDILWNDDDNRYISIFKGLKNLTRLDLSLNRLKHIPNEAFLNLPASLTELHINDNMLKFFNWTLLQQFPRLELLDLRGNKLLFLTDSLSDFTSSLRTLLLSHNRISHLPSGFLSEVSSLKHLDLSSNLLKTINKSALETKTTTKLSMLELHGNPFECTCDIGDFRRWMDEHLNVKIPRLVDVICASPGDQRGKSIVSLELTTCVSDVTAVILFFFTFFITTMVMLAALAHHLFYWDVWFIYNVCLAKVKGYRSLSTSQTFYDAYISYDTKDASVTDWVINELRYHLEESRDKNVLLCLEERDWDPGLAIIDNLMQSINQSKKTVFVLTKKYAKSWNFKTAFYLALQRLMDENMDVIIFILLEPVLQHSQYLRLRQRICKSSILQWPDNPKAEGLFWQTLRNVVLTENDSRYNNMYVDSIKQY
pIC50: −log10 of the molar value.
quantity_measured: pIC50

Study these solved cases before continuing.
{"columns": ["compound", "pIC50"],
 "data": [
  ["COc1ccc(-c2c(C)n(C)c3cnc(C4CCN(C5CCN(CC(C)C)CC5)CC4)cc23)cc1OC [Example 17]", "< 4.30"],
  ["Cc1nc(C2CCN(C3CC4CCC(C3)N4CC(C)C)CC2)cc2c1cc(-c1ccc(S(C)(=O)=O)cc1)n2C (stereo not shown) [Example 114]", "< 4.30"]
]}

INPUT: Requested read-out pIC50, target or system human TLR8 (Homo sapiens, UniProt Q9NR97), entry Cc1nc(-c2ccc(N3CCN(CCCO)CC3)cc2)cc2c1cc(-c1ccc(S(C)(=O)=O)cc1)n2C [Example 36]
OUTPUT: < 4.60

INPUT: Hello, I am looking for reported pIC50 with human TLR8 (Homo sapiens, UniProt Q9NR97) for COc1ccc(-c2c(C)n(C)c3cnc(-c4ccc(N5CCN(CC(C)(C)O)CC5)cc4)cc23)cc1OC [Example 3] . Could you help?
OUTPUT: 4.42
